B1: glmS ribozyme (parent)
chain: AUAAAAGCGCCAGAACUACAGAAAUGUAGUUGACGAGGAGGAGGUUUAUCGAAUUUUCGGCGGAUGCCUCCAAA

variants of: B1; test: self-cleavage kobs at 2500 uM GlcN6P; higher = faster cleavage; RNA array; conditions: with glucosamine-6-phosphate
Fewer inactive variants are shown than the library holds.
Readout Type: self-cleavage kobs at 2500 uM GlcN6P (s⁻¹)
Only the number, expressed in s⁻¹, is required.

Variant Code	self-cleavage kobs at 2500 uM GlcN6P (s⁻¹)
G32A G41U	0.000125
G43C A53G C68U	0.000879
U31A C68U	0.000776
A14G C58A	0.000448
A33U U54G	5.67e-05

Lookup: Return reported self-cleavage kobs at 2500 uM GlcN6P; argument: U30C G32A
Found: 0.000932

Lookup: Return reported self-cleavage kobs at 2500 uM GlcN6P; argument: U30A C67G
Found: 9.16e-05

Lookup: Return reported self-cleavage kobs at 2500 uM GlcN6P; argument: A15U A53U
Found: 0.00314
